Sequence of the target: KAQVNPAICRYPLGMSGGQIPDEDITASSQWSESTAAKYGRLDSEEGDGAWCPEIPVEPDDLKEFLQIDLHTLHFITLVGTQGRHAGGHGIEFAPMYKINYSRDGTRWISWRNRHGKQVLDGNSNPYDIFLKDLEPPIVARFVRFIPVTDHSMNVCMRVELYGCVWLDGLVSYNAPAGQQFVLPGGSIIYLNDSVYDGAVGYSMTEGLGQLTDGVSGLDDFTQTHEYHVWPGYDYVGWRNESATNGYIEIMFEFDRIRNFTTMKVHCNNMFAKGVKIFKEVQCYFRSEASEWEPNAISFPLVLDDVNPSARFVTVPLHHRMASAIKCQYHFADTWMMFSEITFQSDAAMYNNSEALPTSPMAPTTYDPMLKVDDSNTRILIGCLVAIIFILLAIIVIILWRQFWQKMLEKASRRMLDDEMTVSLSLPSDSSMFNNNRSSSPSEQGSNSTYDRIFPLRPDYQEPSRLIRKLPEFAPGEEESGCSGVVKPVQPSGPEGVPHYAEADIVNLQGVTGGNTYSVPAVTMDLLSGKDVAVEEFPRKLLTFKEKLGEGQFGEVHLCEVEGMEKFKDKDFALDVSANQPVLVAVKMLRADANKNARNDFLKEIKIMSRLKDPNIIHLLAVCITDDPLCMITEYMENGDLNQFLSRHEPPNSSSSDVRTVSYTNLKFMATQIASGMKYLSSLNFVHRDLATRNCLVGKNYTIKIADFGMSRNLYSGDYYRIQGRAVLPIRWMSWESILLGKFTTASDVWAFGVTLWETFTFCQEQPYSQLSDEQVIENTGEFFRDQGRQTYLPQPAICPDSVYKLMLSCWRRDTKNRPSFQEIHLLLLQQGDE
pIC50: −log10 of the molar value.
parameter.measured: pIC50

Ask | Record request: pIC50 value, item COc1cc2nccc(Oc3ccc(NC(=O)c4cc(S(C)(=O)=O)n(-c5ccc(F)cc5)n4)cc3F)c2cc1OC
Reply | > 6.30

Ask | Entry to check: COc1cc2nccc(Oc3ccc(NC(=O)c4cc(S(C)(=O)=O)n(-c5ccc(F)cc5)n4)c(F)c3)c2cc1OC
Reply | > 6.30

----------
biological target: LYNb (Homo sapiens, UniProt P07948); construct: purchased Nanosyn (contract screening); test: Kinase panel enzymatic inhibition assay (Nanosyn); type: biochemical; conditions: compound 5 μM; ATP at Km; 30-minute pre-incubation
Sequence (P07948 1-491 isoform P07948-2): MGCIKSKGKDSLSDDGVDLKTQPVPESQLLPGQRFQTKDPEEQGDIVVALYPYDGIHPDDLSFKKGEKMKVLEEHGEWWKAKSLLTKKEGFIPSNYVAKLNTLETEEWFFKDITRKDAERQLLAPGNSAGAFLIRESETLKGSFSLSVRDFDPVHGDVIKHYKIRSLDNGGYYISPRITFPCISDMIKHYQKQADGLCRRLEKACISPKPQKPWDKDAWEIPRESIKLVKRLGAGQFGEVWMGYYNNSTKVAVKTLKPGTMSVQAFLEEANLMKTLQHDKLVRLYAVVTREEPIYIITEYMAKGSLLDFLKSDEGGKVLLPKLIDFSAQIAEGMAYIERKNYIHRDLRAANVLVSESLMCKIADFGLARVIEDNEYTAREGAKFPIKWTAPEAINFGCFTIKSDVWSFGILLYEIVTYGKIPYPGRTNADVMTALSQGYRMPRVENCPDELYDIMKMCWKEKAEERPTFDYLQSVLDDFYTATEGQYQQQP
parameter.measured: inhibition at 5 µM

- Cc1ccc(NC(=O)c2cc([S+](C)[O-])n(-c3ccc(F)cc3)n2)cc1C#Cc1cnc2cccnn12 (stereo not shown): ≥ 95%
- Cc1ccc(NC(=O)c2cc([S+](C)[O-])n(-c3ccc(F)cc3)n2)cc1Nc1ccc2ncn(C)c(=O)c2c1 (stereo not shown): 90 to 94%

Field: next compound
Ask | inhibition at 5 µM for Cc1ccc(NC(=O)c2cc([S+](C)[O-])n(-c3ccc(F)cc3)n2)cc1-c1cc(OCCO)nc(N2CCOCC2)c1 (stereo not shown) ?
Reply | < 79%

----------
Molecular target: FYN (Homo sapiens, UniProt P06241)
Construct: purchased Nanosyn (contract screening)
Sequence (P06241 whole entry): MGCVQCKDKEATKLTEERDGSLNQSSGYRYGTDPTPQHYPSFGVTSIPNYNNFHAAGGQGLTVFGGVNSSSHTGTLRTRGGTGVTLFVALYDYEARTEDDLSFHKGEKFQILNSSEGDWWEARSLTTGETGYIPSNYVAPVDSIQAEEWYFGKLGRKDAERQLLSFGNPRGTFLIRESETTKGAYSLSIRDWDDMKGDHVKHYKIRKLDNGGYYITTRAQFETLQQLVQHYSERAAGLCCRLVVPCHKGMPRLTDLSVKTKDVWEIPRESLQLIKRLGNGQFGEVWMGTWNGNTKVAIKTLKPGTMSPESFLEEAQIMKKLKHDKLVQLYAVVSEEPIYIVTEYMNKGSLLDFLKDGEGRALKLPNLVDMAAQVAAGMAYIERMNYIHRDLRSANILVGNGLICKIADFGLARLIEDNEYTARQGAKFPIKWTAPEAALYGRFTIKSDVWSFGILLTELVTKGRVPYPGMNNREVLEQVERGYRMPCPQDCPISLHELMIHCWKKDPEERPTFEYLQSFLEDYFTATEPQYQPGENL
Assay: Kinase panel enzymatic inhibition assay (Nanosyn)
Type: biochemical
Settings: compound 5 μM; ATP at Km; 30-minute pre-incubation
Experimental: The disclosed compounds were tested for activity against a panel of at least 300 kinases. […]
Each entry below carries its reported inhibition at 5 µM.

Some molecules with known inhibition at 5 µM results, for comparison:
• Cc1ccc(NC(=O)c2cc([S+](C)[O-])n(-c3ccc(F)cc3)n2)cc1Nc1ccc2ncn(C)c(=O)c2c1 (stereo not drawn) = < 79%
• Cc1ccc(NC(=O)c2cc([S+](C)[O-])n(-c3ccc(F)cc3)n2)cc1-c1cc(OCCO)nc(N2CCOCC2)c1 (stereo not drawn) = < 79%
• CNC(=O)c1cc(Oc2ccc(NC(=O)c3cc(S(C)(=O)=O)n(-c4ccc(F)cc4)n3)c(F)c2)ccn1 = < 79%

Ask | Request the reported inhibition at 5 µM associated with Cc1ccc(NC(=O)c2cc(S(C)(=O)=O)n(-c3ccc(F)cc3)n2)cc1C#Cc1cnc2cccnn12
Reply | 90 to 94%

Ask | Record: Cc1ccc(NC(=O)c2cc(S(C)(=O)=O)n(-c3ccc(F)cc3)n2)cc1-c1cc(N2CCOCC2)c(=O)n(C)c1
Reply | < 79%

Ask | Subsequent entry: Cc1ccc(NC(=O)c2cc(S(C)(=O)=O)n(-c3ccc(F)cc3)n2)cc1Nc1nccc(-c2cccnc2N)n1
Reply | < 79%
